# Tested on: Male Slc-ddy mice
# assay-info: Anti-nicotinic effect (survival after intravenous nicotine bitartrate)
# Format: in vivo
# conditions-used: 100 mg/10 ml/kg oral, 30 min, compared with eperisone hydrochloride
endpoint-name: Anti-nicotinic effect Effect

INSERT INTO assay_data (compound, observed_measurement) VALUES
  ('CCc1ccc(C(=O)C(C)(C)CN2CCCCC2)cc1', 0),
  ('CCc1ccc(C(=O)C(C)Cn2ccnc2)cc1 (stereo not drawn)', '◎'),
  ('CCc1ccc(C(=O)C(C)n2ccnc2)cc1.Cl (stereo not drawn)', '◎');

----------
# Test system: Male Slc-ddy mice
# assay-info: Anti-nicotinic effect (survival after intravenous nicotine bitartrate)
# Format: in vivo
# conditions-used: 100 mg/10 ml/kg oral, 30 min, compared with eperisone hydrochloride
endpoint-name: Anti-nicotinic effect Effect

Sample answers from the record:
INSERT INTO measurements (compound, endpoint_name, observed_measurement) VALUES
  ('CCc1ccc(C(=O)C(CN2CCCC2)c2ccccc2)cc1.Cl (centres unmarked) [Compound 24]', 'Anti-nicotinic effect Effect', '○'),
  ('CC(Cn1ccnc1)C(=O)c1ccc(-c2ccccc2)cc1 (centres unmarked) [Compound 12]', 'Anti-nicotinic effect Effect', '◎'),
  ('CCc1ccc(C(=O)CCn2ccnc2)cc1 [Compound 17]', 'Anti-nicotinic effect Effect', '○'),
  ('CC(Cn1ccnc1)C(=O)c1ccc(C(C)C)cc1 (centres unmarked) [Compound 10]', 'Anti-nicotinic effect Effect', 0),
  ('CCc1ccc(C(=O)C(C)Cn2ccnc2C)cc1 (centres unmarked) [Compound 26]', 'Anti-nicotinic effect Effect', '◎');

Qu. Would you kindly share the measured Anti-nicotinic effect Effect for CCc1ccc(C(O)C(C)Cn2ccnc2)cc1 (centres unmarked) [Compound 22] ?
Ans. ◎

Qu. Would you kindly share the measured Anti-nicotinic effect Effect for CCc1ccc(C2(C(C)Cn3ccnc3)OCCO2)cc1 (centres unmarked) [Compound 23] ?
Ans. ◎

Qu. Would you kindly share the measured Anti-nicotinic effect Effect for Cc1ccc(C(=O)C(C)Cn2ccnc2)cc1 (centres unmarked) [Compound 16] ?
Ans. ◎

Qu. Would you kindly share the measured Anti-nicotinic effect Effect for CCc1ccc(C(=O)C(CN2CCCCC2)c2ccccc2)cc1.Cl (centres unmarked) [Compound 7] ?
Ans. 0

Qu. Would you kindly share the measured Anti-nicotinic effect Effect for Cc1ccc(C(=O)C(C)Cn2ccnc2)c(C)c1.Cl (centres unmarked) [Compound 13] ?
Ans. ◎

Qu. Would you kindly share the measured Anti-nicotinic effect Effect for CCc1ccc(C(=O)C(Cn2ccnc2)c2ccccc2)cc1 (centres unmarked) [Compound 19] ?
Ans. ◎

Measured values drawn from patent EP0423524A2 for this set.
